meta.source: PubChem BioAssay (NCI)

tested on: NCI-H522 lung; experiment: NCI-60 one-dose screen, 48 h; conditions: 10 µM
This is part of a sample that, as a whole, favours compounds with a hit. Of some 83,000 tested, about 20% had one in any assay. The source made the active and inactive calls. How the source made its calls: active means growth percent below 10; inactive means the rest.
Bench note: report the call from label 1 for active, label 0 for inactive

> print(dat)
                                   molecule  label.class
1  COc1ccc(C(=O)CSc2nc(-c3cc(OC)ccc3OC)cc(-c3ccc(OC)cc3)c2C#N)cc1      label 0
2                     Clc1ccc(Cc2ccncc2)cc1      label 0
3  COc1cc(NC(=O)Nc2cnc(Nc3ccc(N4CCOCC4)cc3)nc2Oc2cccc(OC)c2)cc(OC)c1      label 0
4  COc1cc2cc(Oc3ccc(NC(=O)Nc4cccc(C(F)(F)F)c4)cc3)c(C)nc2cc1OC      label 1
5                       S=c1cnc2ccccc2[nH]1      label 0

Query :: Any idea what this test logged for "CC(=O)OC/C=C(/C)C[P+](c1ccccc1)(c1ccccc1)c1ccccc1" ?
Result :: label 0

Query :: Could you please tell me the result logged for COc1ccc(NC(=O)C2CC3C=CC2C3)c([N+](=O)[O-])c1 (stereo not given) in this assay?
Result :: label 0

Query :: Hello, I am checking results. What call was entered for "CC(=O)Nc1ccc(S(=O)(=O)N/N=C(\C)c2ccc(C)cc2C)cc1" ?
Result :: label 0

Query :: What outcome does the record of this test show for "CN(C)CCCOc1cccc(NC2=C(Cl)C(=O)C(Nc3cccc(OCCCN(C)C)c3)=C(Cl)C2=O)c1" ?
Result :: label 1

Query :: Tell me the assay call for CC1=CC2C(C(O)CC3(C)C2CC(C)C32OCOC23COCO3)C2(C)C/C(=C/O)C(=O)C=C12 (stereo not given) please.
Result :: label 1

Query :: Please let me know the test result on file for "C[C@@H](C[C@H](CCO)c1ccccc1)c1ccc2ccccc2c1" .
Result :: label 1

Query :: What did this assay record as the result for "COc1cc(Cc2cc(-c3ccccc3)n[nH]c2=O)cc(OC)c1OC" ?
Result :: label 0

Query :: // param item: "O=C(CSc1nnc(-c2cccnc2SCc2ccccc2)o1)Nc1nc(Cl)cc(Cl)n1" ; yields the recorded call
Result :: label 0

Query :: Hi team, can someone confirm the assay call for "CC(C)(C)c1ccc(S(=O)(=O)N[C@H]2CC[C@H]3[C@@H]4CCc5cc(O)c([N+](=O)[O-])cc5[C@H]4CC[C@]23C)cc1" ?
Result :: label 0

Query :: Test call for this molecule, please: CC(C)=CCC/C(C)=C/CC/C(C)=C/CC/C=C(\C)CC/C=C(\C)CCC(=O)Nc1ccn(C2OC(CO)C(O)C2(F)F)c(=O)n1 (stereo not given)
Result :: label 0

Query :: Write down the call the test reported for this molecule. Item: "Nc1nc(-c2cccnc2)nc2c1sc(=S)n2-c1ccccc1"
Result :: label 0

Query :: Which result was noted for this molecule in the test: "NS(=O)(=O)c1ccc(N2N=C(c3ccccc3)CCC2=O)cc1"
Result :: label 0

Query :: # fetch the recorded call for "Cc1cc(Cl)ccc1Nc1nc(C(F)(F)F)ccc1C(=O)N/N=C/c1cccc(O)c1" here
Result :: label 0

Query :: What was the test verdict on "O=C(/C=C/c1cccc(B(O)O)c1)c1cccc(B(O)O)c1" ?
Result :: label 1

Query :: Which result was noted for this molecule in the test: "O=C(CC(CC(=O)c1ccccc1)c1ccccc1O)c1ccccc1"
Result :: label 0
